Test system: H2122
Assay: Test Example 4 growth suppression activity, CellTiter-Glo
Assay type: cell-based
Conditions: NCI-H2122, 72 h; H2122, Human lung cancer, 3 days
Protocol: Human tumor cell lines different in type were suspended in mediums, seeded in individual wells of a multi-well plate and cultured. On the day after initiation of culture, serially diluted solutions of a compound were added. Culture was carried out for further 3 days. Cells were counted by a CellTiter-Glo (manufactured by Promega KK) in accordance with the protocol recommended by Promega KK. […]
pIC50: −log10 of the molar value.
Below: a set of entries, each annotated with reported pIC50.

Compound: Nc1ncnc2c1c(Br)cn2[C@@H]1O[C@H](CO)[C@@H](O)[C@@H]1F [Comparative Example 1]
pIC50: 7.77

Compound: Nc1ncnc2c1c(I)cn2[C@@H]1O[C@H](CO)[C@@H](O)[C@@H]1F [Comparative Example 2]
pIC50: 8.05
